Assay: Multi-component pharmacokinetics in rat plasma after oral administration of RB, RPA or RB-RPA extracts (UPLC-HRMS, non-compartmental analysis)
Format: in vivo, Sprague-Dawley rats
Conditions: rat plasma, oral RB single extract 45 g-herb/kg, mean ± SD, n = 7
readout-label: AUC0-t (ng·h/mL)
Enter your answer as a number in ng·h/mL; do not include the unit.

Please review the entries below; each comes with its answer.
// AUC0-t value for CC(=O)OC[C@H]1O[C@@H](O[C@H]2[C@@H](O)[C@@H](C)O[C@@H](O[C@H]3CC[C@@]4(C)[C@@H](CC[C@]5(C)[C@@H]4C=CC46OCC7(CCC(C)(C)C[C@H]74)[C@@H](O)C[C@]65C)[C@]3(C)CO)[C@@H]2O)[C@H](O)[C@@H](O)[C@@H]1O (stereo partly drawn) [Acetyl-saikosaponin A] : 51.16

// AUC0-t value for C[C@H]1O[C@@H](O[C@H]2CC[C@@]3(C)[C@@H](CC[C@]4(C)[C@@H]3C=CC3=C5CC(C)(C)CC[C@]5(CO)[C@H](O)C[C@]34C)[C@]2(C)CO)[C@H](O)[C@@H](O[C@@H]2O[C@H](CO)[C@@H](O)[C@H](O)[C@H]2O)[C@H]1O [Saikosaponin B2] : 65.14

// AUC0-t value for CC1(C)CC[C@]23CO[C@@]4(C=C[C@@H]5[C@@]6(C)CC[C@H](O)C(C)(C)[C@@H]6CC[C@@]5(C)[C@]4(C)C[C@@H]2O)[C@@H]3C1 [Saikogenin E] : 34.53

// AUC0-t value for C[C@H]1O[C@@H](O[C@@H]2CC[C@@]3(C)[C@@H](CC[C@]4(C)[C@@H]3C=C[C@]35OC[C@@]6(CCC(C)(C)C[C@H]63)[C@@H](O)C[C@]54C)[C@@]2(C)CO)[C@H](O)[C@@H](O)[C@H]1O [Prosaikogenin G] : 10.10

// AUC0-t value for CC1(C)CC[C@]23CO[C@@]4(C=C[C@@H]5[C@@]6(C)CC[C@H](O)[C@@](C)(CO)[C@@H]6CC[C@@]5(C)[C@]4(C)C[C@@H]2O)[C@@H]3C1 [Saikogenin F] : 156.14

More entries:
// AUC0-t value for CC1(C)CC[C@]23CO[C@@]4(C=C[C@@H]5[C@@]6(C)CC[C@H](O)[C@@](C)(CO)[C@@H]6CC[C@@]5(C)[C@]4(C)C[C@H]2O)[C@@H]3C1 [Saikogenin G] : 50.01

// AUC0-t value for CC(=O)OC[C@H]1O[C@@H](O[C@H]2[C@@H](O)[C@@H](C)O[C@@H](O[C@H]3CC[C@@]4(C)[C@@H](CC[C@]5(C)[C@@H]4C=CC46OCC7(CCC(C)(C)C[C@H]74)[C@H](O)C[C@]65C)[C@]3(C)CO)[C@@H]2O)[C@H](O)[C@@H](O)[C@@H]1O (stereo partly drawn) [Acetyl-saikosaponin D] : 23.58

// AUC0-t value for C[C@H]1O[C@@H](O[C@H]2CC[C@@]3(C)[C@@H](CC[C@]4(C)[C@@H]3C=C[C@]35OC[C@@]6(CCC(C)(C)C[C@H]63)[C@H](O)C[C@]54C)[C@]2(C)CO)[C@H](O)[C@@H](O[C@@H]2O[C@H](CO)[C@@H](O)[C@H](O)[C@H]2O)[C@H]1O [Saikosaponin D] : 67.73

// AUC0-t value for CC1(C)CC[C@@]2(CO)C(=C3C=C[C@@H]4[C@@]5(C)CC[C@H](O)[C@@](C)(CO)[C@@H]5CC[C@@]4(C)[C@]3(C)C[C@H]2O)C1 [Saikogenin D] : 81.39

// AUC0-t value for C[C@@H]1O[C@@H](O[C@@H]2[C@H](O)[C@@H](O)[C@H](O[C@H]3CC[C@@]4(C)C(CC[C@]5(C)C4C=C[C@]46OC[C@@]7(CCC(C)(C)CC74)[C@@H](O)C[C@]65C)C3(C)C)O[C@@H]2CO[C@@H]2O[C@H](CO)[C@@H](O)[C@H](O)[C@H]2O)[C@H](O)[C@H](O)[C@H]1O (stereo partly drawn) [Saikosaponin C] : 38.82

// AUC0-t value for C[C@H]1O[C@@H](O[C@H]2CC[C@@]3(C)[C@@H](CC[C@]4(C)[C@@H]3C=C[C@]35OC[C@@]6(CCC(C)(C)C[C@H]63)[C@@H](O)C[C@]54C)[C@]2(C)CO)[C@H](O)[C@@H](O)[C@H]1O [Prosaikogenin F] : 54.21

// AUC0-t value for C[C@H]1O[C@@H](O[C@H]2CC[C@@]3(C)[C@@H](CC[C@]4(C)[C@@H]3C=CC3=C5CC(C)(C)CC[C@]5(CO)[C@H](O)C[C@]34C)[C@]2(C)CO)[C@H](O)[C@@H](O)[C@H]1O [Prosaikogenin D] : 27.23
